- assayed-target: ADAM10 (Homo sapiens)
- Construct: purchased R&D Systems 936-AD
- Sequence (O14672 214-748): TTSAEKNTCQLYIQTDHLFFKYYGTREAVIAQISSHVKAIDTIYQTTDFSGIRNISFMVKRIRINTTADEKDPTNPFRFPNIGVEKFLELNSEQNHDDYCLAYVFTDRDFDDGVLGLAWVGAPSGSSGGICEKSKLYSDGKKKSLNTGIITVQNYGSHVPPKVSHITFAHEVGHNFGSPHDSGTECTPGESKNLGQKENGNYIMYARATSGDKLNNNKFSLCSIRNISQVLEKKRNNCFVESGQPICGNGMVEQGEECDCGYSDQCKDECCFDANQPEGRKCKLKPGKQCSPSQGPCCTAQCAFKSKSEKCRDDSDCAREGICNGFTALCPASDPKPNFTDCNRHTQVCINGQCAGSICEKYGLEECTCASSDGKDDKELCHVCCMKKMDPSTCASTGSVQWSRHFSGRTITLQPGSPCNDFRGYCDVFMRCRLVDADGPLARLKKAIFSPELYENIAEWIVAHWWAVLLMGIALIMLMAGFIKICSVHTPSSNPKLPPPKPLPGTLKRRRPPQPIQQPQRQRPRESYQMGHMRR
- test-method-notes: ADAM10 glycosylated substrate uHTS/HTS assay
- Format: biochemical
- measurement-setup: 4 h pre-incubation
quantity: IC50 (nM)
Give bare numbers, in nM.

Returns the measured IC50 for the input molecule. Input: `COc1cccc(C(=O)NNC(=O)C(=O)Nc2ccc(C)c(Cl)c2)c1`
400
